# Tested On: MAO-A (amine oxidase [flavin-containing] A) (Homo sapiens)
# Sequence (P21397 whole entry): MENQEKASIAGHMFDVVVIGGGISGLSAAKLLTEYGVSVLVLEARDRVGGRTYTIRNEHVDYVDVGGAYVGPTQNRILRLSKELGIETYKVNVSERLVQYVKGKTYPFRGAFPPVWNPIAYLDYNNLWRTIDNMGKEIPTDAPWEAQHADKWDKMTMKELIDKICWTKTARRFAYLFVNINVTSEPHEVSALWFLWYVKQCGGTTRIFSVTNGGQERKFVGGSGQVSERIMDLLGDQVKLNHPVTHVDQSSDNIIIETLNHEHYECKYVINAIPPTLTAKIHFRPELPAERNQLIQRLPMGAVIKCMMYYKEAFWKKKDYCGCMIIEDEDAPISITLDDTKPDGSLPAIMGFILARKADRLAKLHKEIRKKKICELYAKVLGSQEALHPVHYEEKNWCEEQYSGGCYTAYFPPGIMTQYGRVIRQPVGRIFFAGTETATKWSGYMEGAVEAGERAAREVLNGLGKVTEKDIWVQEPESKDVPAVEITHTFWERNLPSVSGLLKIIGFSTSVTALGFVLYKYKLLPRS
# Procedure Summary: Inhibition of N-terminal FLAG-tagged recombinant human MAO-A expressed in baculovirus infected Sf9 cells upto 10 uM preincubated for 15 mins followed by addition of luciferin derivative substrate measured after 1 hr by Luciferase Glo assay relative to control
# Cond: probe luciferin derivative substrate, time 75 min
Outcome Measure: inhibition at 1 h, up to 10 µM

Report inhibition at 1 h, up to 10 µM for O=C(O)C(F)(F)F.O=[N+]([O-])c1ccc(C2NCCc3cc(O)c(O)cc32)cc1 (stereo unspecified) please.
< 30%

###

# Tested On: MAO-B (amine oxidase [flavin-containing] B) (Homo sapiens)
# Sequence (P27338 whole entry): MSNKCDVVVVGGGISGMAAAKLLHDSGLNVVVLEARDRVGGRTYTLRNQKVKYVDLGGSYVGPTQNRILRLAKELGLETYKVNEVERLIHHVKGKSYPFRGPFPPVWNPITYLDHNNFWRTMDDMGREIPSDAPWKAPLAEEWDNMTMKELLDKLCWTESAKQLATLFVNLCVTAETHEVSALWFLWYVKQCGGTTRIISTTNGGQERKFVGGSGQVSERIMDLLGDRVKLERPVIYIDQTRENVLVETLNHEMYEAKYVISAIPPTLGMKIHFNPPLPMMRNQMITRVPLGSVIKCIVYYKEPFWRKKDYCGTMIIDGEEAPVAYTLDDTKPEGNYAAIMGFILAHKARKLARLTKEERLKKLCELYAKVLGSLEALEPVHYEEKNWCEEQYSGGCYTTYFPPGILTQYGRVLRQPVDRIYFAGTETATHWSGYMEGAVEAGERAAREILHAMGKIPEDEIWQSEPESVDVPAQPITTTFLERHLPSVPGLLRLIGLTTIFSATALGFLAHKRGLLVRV
# Procedure Summary: Inhibition of N-terminal FLAG-tagged recombinant human MAO-B expressed in baculovirus infected Sf9 cells upto 10 uM preincubated for 15 mins followed by addition of luciferin derivative substrate measured after 1 hr by Luciferase Glo assay relative to control
# Cond: probe luciferin derivative substrate, time 75 min
Outcome Measure: inhibition at 1 h, up to 10 µM

State the recorded inhibition at 1 h, up to 10 µM for this entry: O=C(O)C(F)(F)F.O=[N+]([O-])c1ccc(C2NCCc3cc(O)c(O)cc32)cc1 (stereo unspecified)
< 30%
